Target: unphosphorylated VEGF-R2Δ50 (FLVK) (Homo sapiens, UniProt P35968, DEL940-989/E990V)
Construct: VEGF-R2Δ50 contains residues 806-939 and 990-1171; made in house; host or cells: baculovirus/insect cell system
Sequence (P35968 with tags, fused parts or gaps DEL940-989/E990V limits assumed): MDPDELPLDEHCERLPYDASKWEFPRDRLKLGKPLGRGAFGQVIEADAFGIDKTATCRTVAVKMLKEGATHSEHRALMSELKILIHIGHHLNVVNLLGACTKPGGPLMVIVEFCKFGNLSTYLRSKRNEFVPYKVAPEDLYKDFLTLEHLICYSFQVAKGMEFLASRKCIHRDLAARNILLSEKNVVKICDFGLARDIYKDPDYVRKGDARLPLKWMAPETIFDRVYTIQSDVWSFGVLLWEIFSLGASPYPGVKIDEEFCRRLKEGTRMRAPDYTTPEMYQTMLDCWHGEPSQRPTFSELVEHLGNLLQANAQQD
Assay: VEGF-R2 coupled spectrophotometric assay, unphosphorylated construct (FLVK)
Type: biochemical
Settings: percent inhibition at 50 nM
measured_parameter: inhibition at 0.05 µM (%)
Answers are plain numbers, in %.

Here's what some known entries look like.
{"columns": ["molecule", "inhibition at 0.05 µM / %"],
 "data": [
  ["C#CCNC(=O)n1c(C)cc2cc(Oc3ccnc4cc(C(=O)N5C[C@H](OC)[C@H](OC)C5)sc34)ccc21", 99],
  ["Cc1cc2cc(Oc3ccnc4cc(C(=O)N5CC[C@@H](N(C)C)C5)sc34)ccc2n1C(=O)NCCO", 88],
  ["CNC(=O)c1c(C)n(C(=O)NC)c2ccc(Oc3ccnc4cc(C(=O)N5CC[C@@H](N(C)C)C5)sc34)cc12", 68],
  ["CO[C@H]1CCN(C(=O)c2cc3nccc(Oc4ccc5c(c4)cc(C)n5C(=O)NC4CC4)c3s2)C1", 91],
  ["Cc1cc2cc(Oc3ccnc4cc(C(=O)N5CC[C@H](O)C5)sc34)ccc2n1C(=O)NCCCO", 97]
]}

Hi, could you look up inhibition at 0.05 µM for each item in my list?
1. CCOC(=O)c1cc2c(Oc3ccc4c(c3)cc(C)n4C(=O)NC)ncnc2s1 [Example 12c]
2. CNC(=O)n1c(C)cc2cc(Nc3ccnc4cc(C(=O)N5CCC[C@H]5CO)sc34)ccc21
3. CO[C@H]1CCN(C(=O)c2cc3nccc(Oc4ccc5c(c4)cc(C)n5C(=O)NCCO)c3s2)C1
4. CCC(=O)n1c(C)cc2cc(Oc3ccnc4cc(C(=O)N5CC[C@H](OC)C5)sc34)ccc21 [Example 10a]

1. 14
2. 85
3. 81
4. 64

* * *

Target: unphosphorylated VEGF-R2Δ50 (FLVK) (Homo sapiens, UniProt P35968, DEL940-989/E990V)
Construct: VEGF-R2Δ50 contains residues 806-939 and 990-1171; made in house; host or cells: baculovirus/insect cell system
Assay: VEGF-R2 coupled spectrophotometric assay, unphosphorylated construct (FLVK)
Assay type: biochemical
Details: percent inhibition at 50 nM
measured_parameter: inhibition at 0.05 µM (%)
Give bare numbers, in %.

Below, 5 molecules whose answers are already recorded.
{"columns": ["compound_string", "inhibition at 0.05 µM, %"],
 "data": [
  ["CNC(=O)n1c(C)cc2cc(Nc3ccnc4cc(C(=O)N5CCC[C@H]5COC)sc34)ccc21", 87],
  ["CNC(=O)n1c(C)cc2cc(Nc3ccnc4cc(C(=O)N5CCC[C@@H]5COC)sc34)ccc21", 88],
  ["COC[C@@H]1CCCN1C(=O)c1cc2nccc(Oc3ccc4c(cc(C)n4C(=O)NC4CC4)c3F)c2s1", 98],
  ["CNC(=O)n1c(C)cc2cc(Nc3ccnc4cc(C(=O)N5CC[C@H](O)C5)sc34)ccc21", 93],
  ["Cc1cc2cc(Nc3ccnc4cc(-c5nccn5C)sc34)ccc2n1C(=O)NC1CC1", 98]
]}

# map each molecule to its inhibition at 0.05 µM
1. CNC(=O)n1c(C)cc2cc(Nc3ccnc4cc(C(=O)N5CCC5)sc34)ccc21
2. Cc1cc2cc(Nc3ccnc4cc(C(=O)N5CC[C@H](O)C5)sc34)ccc2n1C(=O)NC1CC1
3. C#CCNC(=O)n1c(C)cc2c(F)c(Oc3ccnc4cc(C(=O)N5CC[C@@H](OC)C5)sc34)ccc21

97
97
99
